Listing of entries alongside the reported self-splicing fitness (ln).
- method: self-splicing fitness, log relative to wild type (ln ratio); higher = more splicing; Tetrahymena group I intron in knt gene, E. coli kanamycin selection, DiMSum; sequences stand for … in CUCUCU…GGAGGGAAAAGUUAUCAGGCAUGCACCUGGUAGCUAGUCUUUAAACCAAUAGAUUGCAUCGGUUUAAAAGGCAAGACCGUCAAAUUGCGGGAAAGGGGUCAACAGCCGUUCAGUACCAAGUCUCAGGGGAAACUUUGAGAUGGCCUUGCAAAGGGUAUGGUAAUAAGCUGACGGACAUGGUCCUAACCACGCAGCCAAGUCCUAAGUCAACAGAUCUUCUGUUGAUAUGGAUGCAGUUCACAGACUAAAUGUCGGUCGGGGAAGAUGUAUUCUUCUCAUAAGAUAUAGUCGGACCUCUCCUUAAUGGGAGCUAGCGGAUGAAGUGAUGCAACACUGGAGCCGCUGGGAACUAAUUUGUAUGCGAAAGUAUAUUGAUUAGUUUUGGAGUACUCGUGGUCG;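 also: selection with 25 µg/mL kanamycin versus none on LB agar overnight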
- protocolConditions: 30 °C
Number only, no unit.

# return recorded self-splicing fitness (ln) for entry GAGGAGCAAUAUUACGAUCA
-2.5

# return recorded self-splicing fitness (ln) for entry UCGCAGCAAUAUUACGGCGA
-3.35

# return recorded self-splicing fitness (ln) for entry UUGUAGCAAUAUUACGCCUA
-0.297

# return recorded self-splicing fitness (ln) for entry GAUCAGCAAUAUUACGUGAC
-1.62

# return recorded self-splicing fitness (ln) for entry UGUGAGCAAUAUUACGAGCA
-0.913

Origin of measurements: the supplement of paper PMC7877785
